Each entry below carries its reported T/C.
# Test system: P388 leukemia ip, CD2F1 mice, survival T/C
# ASSAY REMARKS: NCI In Vivo Anticancer Drug Screen. Data for tumor model P388 Leukemia (intraperitoneal) in CD2F1 (CDF1) mice
# REPORTED CONDITIONS: endpoint: median survival time; dose: 240.0 mg/kg/injection; schedule: Q01DX005 (ip); vehicle: saline with Tween-80; higher = longer survival
Inconclusive results and toxic doses are left out.
MEASURED QUANTITY: T/C

{"COMPOUND": "N#C/C(=C/c1cccs1)c1cccs1", "MEASURED QUANTITY": "T/C", "VALUE REPORTED": "109 % of control"}
{"COMPOUND": "CC(C(=O)c1ccc(Cl)cc1)C1=NC2NN(c3ccccc3)C(=O)C2=C1C(C)C(=O)c1ccc(Cl)cc1 (stereo not given)", "MEASURED QUANTITY": "T/C", "VALUE REPORTED": "100 % of control"}
{"COMPOUND": "COC1=CC(=O)N/C1=C(\\OC)c1ccccc1", "MEASURED QUANTITY": "T/C", "VALUE REPORTED": "99 % of control"}
{"COMPOUND": "COc1nc(NC2OC(COC(C)=O)C(OC(C)=O)C(OC(C)=O)C2OC(C)=O)c(N=C(C)C(C)=O)c(=O)n1C (stereo not given)", "MEASURED QUANTITY": "T/C", "VALUE REPORTED": "95 % of control"}
{"COMPOUND": "NC(=O)c1cc2c(oc1=O)-c1ccccc1N(C=O)C2", "MEASURED QUANTITY": "T/C", "VALUE REPORTED": "95 % of control"}
